Overview of reported Plant response rating, Foxtail, Giant across a group of compounds:
Tested on: foxtail, giant
Assay: Test A preemergence
Assay type: in vivo, Setaria faberii
Conditions: 125 g ai/ha, 0 to 100 scale (0 no effect, 100 complete control)
Answer with a bare number; do not write a unit.

compound	quantity	result number
CCCc1nc(-c2ccc(C(F)(F)F)cc2)nn1Cc1ccnc(C(F)(F)F)c1 [Compound 12]	Plant response rating, Foxtail, Giant	100
Cn1nc(-c2ccc(F)cc2)nc1Cc1ccnc(C(F)(F)F)c1 [Compound 13]	Plant response rating, Foxtail, Giant	100

// switching to the query compound
[Q] Entry under review: Cc1nc(-c2ccc(C(F)(F)F)cc2)nn1Cc1cccc(OC(F)(F)F)c1 [Compound 4] . Reported Plant response rating, Foxtail, Giant?
[A] 0

* * *

Overview of reported Plant response rating, Ducksalad, Flood across a group of molecules:
System: ducksalad
Assay: Test B flooded paddy test
Format: in vivo, Heteranthera limosa
Conditions: 250 g ai/ha, applied to paddy water at 2-leaf stage, visual rating after 13 to 15 d, scale 0 (no effect) to 100 (complete control)
Answer with a bare number; do not write a unit.

// below: answered molecules
1. CCOc1nc(-c2ccc(Cl)cc2)nn1Cc1ccnc(C(F)(F)F)c1 70
2. CSc1nc(-c2ccc(F)cc2)nn1Cc1ccnc(C(F)(F)F)c1 95
3. COc1nc(-c2ccc(C(F)(F)F)cc2)nn1Cc1ccnc(C(F)(F)F)c1 20

// switching to the query molecule
[Q] Quick check: Plant response rating, Ducksalad, Flood on ducksalad, item COc1nc(-c2ccc(Cl)cc2)nn1Cc1ccnc(C(F)(F)F)c1 ?
[A] 90

* * *

Overview of reported pest or weed control at 125 g/ha across a group of molecules:
Test system: morningglory
Assay: Test A postemergence
Type: in vivo, Ipomoea spp.
Conditions: Ipomoea, post-emergence, 240 h, 125 g ai/ha, 0 to 100 scale (0 no effect, 100 complete control), approx. 10 d, read-out: Plant response rating, Morningglory
Reply numerically in %, unit not repeated.

// below: answered molecules
1. CCc1nc(-c2ccc(C(F)(F)F)cc2)nn1Cc1ccnc(C(F)(F)F)c1 90
2. CCOc1nc(-c2ccc(F)cc2)nn1Cc1ccnc(C(F)(F)F)c1 90
3. CCn1nc(-c2ccc(F)cc2)nc1C(=O)c1ccnc(C(F)(F)F)c1 0

// switching to the query molecule
[Q] Quick check: pest or weed control at 125 g/ha on morningglory, item CCCn1nc(-c2ccc(F)cc2)nc1Cc1ccnc(C(F)(F)F)c1 ?
[A] 70

* * *

System: galium
Experiment: Test C postemergence
Type: in vivo, Galium aparine
Details: 62 g ai/ha
quantity: Plant response rating (scale of 0 to 100 where 0 is no effect and 100 is complete control)
Answer with a bare number; do not write a unit.

// below: answered compounds
1) Fc1ccc(-c2nc(OCC(F)(F)F)n(Cc3ccnc(C(F)(F)F)c3)n2)cc1 80
2) CCc1nc(-c2ccc(C(F)(F)F)cc2)nn1Cc1ccnc(C(F)(F)F)c1 80
3) FC(F)(F)COc1nc(-c2ccc(Cl)cc2)nn1Cc1ccnc(C(F)(F)F)c1 80
4) FC(F)(F)COc1nc(-c2ccccc2)nn1Cc1ccnc(C(F)(F)F)c1 80

[Q] Entry under review: CCOc1nc(-c2ccc(F)cc2)nn1Cc1ccnc(C(F)(F)F)c1 . Reported Plant response rating (scale of 0 to 100 where 0 is no effect and 100 is complete control)?
[A] 95

[Q] Request: COc1nc(-c2ccc(Cl)cc2)nn1Cc1ccnc(C(F)(F)F)c1
[A] 90

[Q] Request: COc1nc(-c2ccc(C(F)(F)F)cc2)nn1Cc1ccnc(C(F)(F)F)c1
[A] 90
